- Tgt: CYP1A2 (Homo sapiens, UniProt P05177)
- Construct: premixing appropriate volumes of buffer, microsomes and substrate; from tissue
- Sequence (P05177 whole entry): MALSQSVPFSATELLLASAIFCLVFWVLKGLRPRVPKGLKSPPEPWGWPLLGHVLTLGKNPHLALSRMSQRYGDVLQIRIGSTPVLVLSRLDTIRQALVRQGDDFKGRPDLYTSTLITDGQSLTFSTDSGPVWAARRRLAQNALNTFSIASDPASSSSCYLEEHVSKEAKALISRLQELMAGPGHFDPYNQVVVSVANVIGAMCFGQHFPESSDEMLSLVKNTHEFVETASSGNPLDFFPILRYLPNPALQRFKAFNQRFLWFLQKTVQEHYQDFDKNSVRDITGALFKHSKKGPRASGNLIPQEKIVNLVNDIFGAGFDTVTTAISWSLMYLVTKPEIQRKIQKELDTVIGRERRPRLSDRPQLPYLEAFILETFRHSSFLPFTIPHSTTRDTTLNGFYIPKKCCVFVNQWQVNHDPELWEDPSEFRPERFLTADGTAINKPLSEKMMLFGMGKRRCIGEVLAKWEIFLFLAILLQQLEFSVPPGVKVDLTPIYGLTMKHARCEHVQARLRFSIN
- Test method notes: CYP inhibition, microsomes
- Format: in vitro ADME
- Particulars: metabolite acetaminophen, class symbols
pIC50: −log10 of the molar value.
Reported pIC50 values are given for each entry in this list.

Cn1c2c(c(=O)c3ccccc31)CN(Cc1ccccc1)CC2 [Compound I-1]: 4.30 to 4.70

For the next question, use this compound.
Would you mind telling me what pIC50 value was observed for CN1c2ccccc2C(O)C2CN(Cc3ccccc3)CCC21 (centres unmarked) [Ia-1] ?
4.70 to 5.30

---

- Tgt: hERG (Homo sapiens, UniProt Q12809)
- Construct: expressed in transfected cells
- Sequence (Q12809 whole entry): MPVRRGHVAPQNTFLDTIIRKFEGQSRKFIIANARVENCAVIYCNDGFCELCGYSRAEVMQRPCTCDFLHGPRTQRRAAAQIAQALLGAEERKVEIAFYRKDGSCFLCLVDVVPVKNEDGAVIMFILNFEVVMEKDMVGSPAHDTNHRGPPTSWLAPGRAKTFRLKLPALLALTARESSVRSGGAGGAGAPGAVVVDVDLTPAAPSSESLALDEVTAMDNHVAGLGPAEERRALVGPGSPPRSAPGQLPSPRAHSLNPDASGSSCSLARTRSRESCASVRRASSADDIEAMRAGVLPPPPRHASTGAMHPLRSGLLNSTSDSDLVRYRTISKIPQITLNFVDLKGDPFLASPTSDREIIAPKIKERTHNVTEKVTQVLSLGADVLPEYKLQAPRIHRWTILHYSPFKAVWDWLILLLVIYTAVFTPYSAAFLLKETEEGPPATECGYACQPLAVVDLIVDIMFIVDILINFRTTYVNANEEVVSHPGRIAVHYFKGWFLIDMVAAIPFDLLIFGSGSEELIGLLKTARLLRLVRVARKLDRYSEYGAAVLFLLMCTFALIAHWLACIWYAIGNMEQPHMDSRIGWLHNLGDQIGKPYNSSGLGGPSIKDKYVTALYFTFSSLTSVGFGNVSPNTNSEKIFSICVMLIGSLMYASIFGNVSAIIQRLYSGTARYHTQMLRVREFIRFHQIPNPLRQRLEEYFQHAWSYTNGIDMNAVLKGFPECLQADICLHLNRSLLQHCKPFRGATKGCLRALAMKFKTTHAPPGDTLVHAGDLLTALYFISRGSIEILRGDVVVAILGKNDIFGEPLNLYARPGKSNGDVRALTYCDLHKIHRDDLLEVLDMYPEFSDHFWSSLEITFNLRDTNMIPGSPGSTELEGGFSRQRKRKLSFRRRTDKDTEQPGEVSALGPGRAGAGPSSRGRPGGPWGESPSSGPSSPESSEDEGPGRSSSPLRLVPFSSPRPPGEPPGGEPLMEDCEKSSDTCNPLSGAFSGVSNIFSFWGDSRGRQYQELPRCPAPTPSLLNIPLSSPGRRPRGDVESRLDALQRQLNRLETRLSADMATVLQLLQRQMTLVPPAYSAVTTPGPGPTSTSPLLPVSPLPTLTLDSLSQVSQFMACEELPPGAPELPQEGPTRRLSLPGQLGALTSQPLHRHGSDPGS
- Test method notes: hERG inhibition, IKr current, patch clamp in HEK cells stably transfected with the hERG clone
- Assay type: cell-based
- Particulars: human, HEK cells stably transfected with hERG, pH 7.4, 3 μM; read-out: Percent Inhibition Trial I (IKr current)
- Procedure: HEK cells stably transfected with the hERG clone are maintained at 37±2° C. in a 5% CO2 incubator. The cells are initially revived and grown in DMEM/F12+GlutaMAX-I medium supplemented with 9% fetal bovine serum (FBS) and antibiotics (Penicillin 100 IU/mL Streptomycin 100 μg/mL) (complete medium). […] Once the stable current is attained (at least 2-5 minutes) vehicle control is added and the current measured till the stable current is achieved. […]
Measured attribute: inhibition at 3 µM (%)
The reply should contain only the number, in %.

The following compounds have reported results that may help.
CN1c2ccccc2C(O)C2CN(Cc3ccccc3)CCC21 (stereo not drawn): 21.3
O=c1c2c([nH]c3cc(F)c(F)cc13)CCN(Cc1ccccc1)C2: 16

For the next question, use this compound.
Would you mind telling me what inhibition at 3 µM value was observed for Cn1c2c(c(=O)c3ccccc31)CN(Cc1ccccc1)CC2 ?
20.4

Origin of measurements: patent US11434239B2
